Test: Pharmacokinetics in rats
Type: in vivo
Settings: whole blood; rat; hydrochloride salt; iv 4.5 mg/kg; read-out: blood Cl
OBSERVABLE: clearance (mL/min/kg)
A number alone suffices; assume mL/min/kg.

Q: I would be grateful if you could share the reported clearance for `CN1CCC(Nc2ccc3ncc(-c4ccc(Nc5ncccc5F)cc4)n3n2)CC1` .
Result: 14

----------
Assay: Pharmacokinetics in rats
Type: in vivo
Conditions: in vivo; rat; hydrochloride salt; iv 4.5 mg/kg
OBSERVABLE: Vd (L/kg)
A number alone suffices; assume L/kg.

Q: I would be grateful if you could share the reported Vd for `CN1CCC(Nc2ccc3ncc(-c4ccc(Nc5ncccc5F)cc4)n3n2)CC1` .
Result: 8
